Reference source for all entries: ChEMBL document CHEMBL2203026

# IC50 values compiled below
target: Metabotropic glutamate receptor 3 (Homo sapiens); test: Negative allosteric modulation of mGlu3 assessed as thallium flux through GIRK channels by cell-based assay; details: read-out: IC50
Sequence (Q14832 whole entry): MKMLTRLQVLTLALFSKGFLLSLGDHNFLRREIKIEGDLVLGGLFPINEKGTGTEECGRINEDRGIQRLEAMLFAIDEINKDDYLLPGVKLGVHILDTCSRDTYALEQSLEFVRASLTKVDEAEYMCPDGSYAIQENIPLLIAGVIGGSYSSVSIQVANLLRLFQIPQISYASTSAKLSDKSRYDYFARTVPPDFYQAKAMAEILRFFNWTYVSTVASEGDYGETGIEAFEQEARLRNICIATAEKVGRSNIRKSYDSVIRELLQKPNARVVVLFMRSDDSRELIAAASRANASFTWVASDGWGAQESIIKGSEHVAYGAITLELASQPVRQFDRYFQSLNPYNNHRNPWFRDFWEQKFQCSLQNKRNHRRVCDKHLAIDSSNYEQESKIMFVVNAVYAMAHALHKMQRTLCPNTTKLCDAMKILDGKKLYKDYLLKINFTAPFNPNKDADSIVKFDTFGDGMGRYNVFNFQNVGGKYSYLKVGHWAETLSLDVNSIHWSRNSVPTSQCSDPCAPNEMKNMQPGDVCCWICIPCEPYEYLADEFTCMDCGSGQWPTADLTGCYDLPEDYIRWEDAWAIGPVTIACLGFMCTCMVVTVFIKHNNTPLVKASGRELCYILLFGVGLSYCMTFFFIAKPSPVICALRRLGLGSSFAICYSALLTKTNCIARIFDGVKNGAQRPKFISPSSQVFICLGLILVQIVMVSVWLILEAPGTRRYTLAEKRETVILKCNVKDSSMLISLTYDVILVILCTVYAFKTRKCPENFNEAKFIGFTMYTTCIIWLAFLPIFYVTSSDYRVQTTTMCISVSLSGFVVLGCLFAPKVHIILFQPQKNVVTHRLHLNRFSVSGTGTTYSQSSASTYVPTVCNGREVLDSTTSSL
ASSAY ENDPOINT: IC50

[[record]]
smiles_input = "CCN1CCC[C@H]1CC(=O)c1ccc(C#Cc2ccc(OC)cc2)cc1"
recorded_result = "> 10 µM"

[[record]]
smiles_input = "COc1ccc(C#Cc2ccc(C(=O)N3CCC[C@@H](C(=O)O)C3)cc2)cc1"
recorded_result = "> 10 µM"

[[record]]
smiles_input = "COc1ccc(C#Cc2ccc(C(=O)N3CCN(C(C)C)CC3)cc2)cc1"
recorded_result = "> 10 µM"

